Assay: in vitro
Conditions: rabbit
ENDPOINT: recovery at 10 min, 10 µg/mL

> print(dat)
                           smiles.repr  measured
1  CC(C)=CCOc1cc(NC(=S)c2ccoc2C)ccc1Cl      113%
